Measured inhibition, listed per entry.
# assay info: H1N1 influenza NS1A inhibitors, functional cell based assay (AID 504329)
# protocol conditions: percent inhibition, at 12.5 µM, active compounds read high
About 1,000 (0.29%) of roughly 340,000 compounds were called active. These entries were drawn from the full list. Entries with a potency or affinity are not part of this list.
measured attribute: inhibition (%)

                                   molecule  measured_attribute  display_unit  reported
0   O=C(O)c1cccc(NN=C2c3ccccc3-c3ccccc32)c1          inhibition             %      10.1
1             C=CCN1C=CC(=CC=C(C#N)C#N)C=C1          inhibition             %      4.22
2    CCCCCCN1C=C/C(=C\C=C(C#N)C#N)c2ccccc21          inhibition             %      18.4
3  O=C(NCC1CCCO1)C(=O)N/N=C/c1cccc(Cl)c1 (stereo unspecified)          inhibition             %      1.01
4  CC(=O)N(Cc1cccs1)Cc1cc2ccc(C)c(C)c2nc1Cl          inhibition             %     -4.22
5  O=C(O)c1ccc(N=N/C(=N\Nc2ccc(C(=O)O)cc2)c2ccccc2)cc1          inhibition             %      15.3
